target: T1, human HER1 (human, UniProt P00533 25-1210); test: FACS CHO-HER1, 2000 nM
T1 construct: also called EGFR; ErbB1
# MCF values compiled below
measured-parameter: MCF

binder | measured-parameter | result
21F06 (VHH, c-myc, His6-tagged form as expressed; also called 21F6; HER3MS21F06) VHH: EVQLVESGGGLVQAGGSLRLSCAASGRTYYLNAMGWFRQGPGKDREFVAAIDWSDGNKDYADSVKGRFTISRDNAKNTVYLQMNSLKPEDTAVYYCAADTPPWGPMIYIESYDSWGQGTQVTVSS | MCF | 74
23F05 (VHH) VHH: EVQLVESGGGLVQAGGSLRLSCAASGFTFDGYAIGWFRQAPGKEREGVSCISGGDGRSYYADSVKGRFTVSSDNAKNTLYLEMNSLKPEDTAVYYCAVIWGPYCSDSYEYLYEYDYWGQGTQVTVSS | MCF | 67
17C08 (VHH, also called 17C8) VHH: EVQLVESGGGLMQAGDSLRLSCAASGRAFSSYALGWFRRAPGKERECVAATDRLGDNTYFPDSVKGRFTISRDNAKNTLYLQMNNLKPEDTAVYYCAAGAVRYGVSTSPMNYNYWGQGTQVTVSS | MCF | 58
18E08 (VHH) VHH: EVQLVESGGGLVQPGGSLRLSCAASGTLFKINAMGWYRQAPGKQRELVALITSSDTTDYAESVEGRFTISRDNTWNAVYLQMNSLKPEDTAVYYCHSDHYSMGVPEKRVIMYGQGTQVTVSS | MCF | 64
17B05 (VHH, also called HER3MS17B05; HER3MS017B05) VHH: EVQLVESGGGLVQPGGSLRLSCAASGSIGGLNAMAWYRQAPGKERELVAGIFGVGSTRYADSVKGRFTISRDIAKNTVFLQMNSLNSEDTAVYYCRMSSVTRGSSDYWGQGTQVTVSS | MCF | 49
04C07 (VHH, also called HER3MS04C07; HER3MS004C07) VHH: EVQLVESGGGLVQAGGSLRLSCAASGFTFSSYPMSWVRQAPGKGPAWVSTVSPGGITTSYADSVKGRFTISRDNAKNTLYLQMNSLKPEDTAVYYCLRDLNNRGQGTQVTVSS | MCF | 72
18G11 (VHH, c-myc, His6-tagged form as expressed; also called HER3MS18G11; HER3MS018G11) VHH: EVQLVESGGGLVQPGGSLRLSCAASGTLFKINAMGWYRQAPGKRRELVALITSSDTTDYAESVEGRFTISRDNTWNAVYLQMNSLKPEDTAVYYCHSDHYSMGVPEKRVIMYGQGTQVTVSS | MCF | 97
18B05 (VHH) VHH: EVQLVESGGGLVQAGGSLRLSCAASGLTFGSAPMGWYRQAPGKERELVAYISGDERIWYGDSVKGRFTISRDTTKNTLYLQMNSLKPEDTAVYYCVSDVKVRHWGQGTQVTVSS | MCF | 61
21B02 (VHH) VHH: EVQLVESGGGLVQPGGSLRLSCAASGFTFDYYTIGWFRQAPGKEREGVSCISSRDGDSYYADSVKGRFTISRDNAKNTAYLQMNSLKPEDTAVYYCAASASDYGLGLELFHDEYNYWGQGTQVTVSS | MCF | 53
17E08 (VHH) VHH: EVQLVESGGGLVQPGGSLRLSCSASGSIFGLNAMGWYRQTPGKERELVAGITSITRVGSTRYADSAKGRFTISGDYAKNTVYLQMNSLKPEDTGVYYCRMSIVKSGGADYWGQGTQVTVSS | MCF | 59
18F05 (VHH, also called 18F5) VHH: EVQLVESGGGLVQPGGSLRLSCVASGFTFSSYWMYWVRQAPGKGVEWVSAISPGGVERYTDSVKGRFTISRDNAKNTLYLQMNSLKSEDTAMYYCARLTSFATPESQGTQVTVSS | MCF | 133

# credit: patent US20130136748A1
